test: Biotin-PGE2 ELISA (PGE2-biotinamide binding to captured IgG)
The reader will find reported EC50 values listed item by item below.
The reply should be a number in pM, with the unit left off.

MOLECULE	UNITS TEXT	EC50
Hu2B5.5: humanized 2B5-8.0; VH SEQ ID NO 68, VL SEQ ID NO 69 (antibody, V domains shown) VH: EVQLVQSGAEVKKPGASVKVSCKASGYTFTKYWLGWVRQAPGQGLEWMGDIYPGYDYTHYNEKFKDRVTLTTDTSTSTAYMELRSLRSDDTAVYYCARSDGSSTYWGQGTLVTVSS VL: DVVMTQTPLSLPVTPGEPASISCTSSQNIVHSNGNTYLEWYLQKPGQSPQLLIYKVSNRFSGVPDRFSGSGSGTDFTLKISRVEAEDVGVYYCFQVSHVPYTFGGGTKVEIKR	pM	37

Q. What measured EC50 goes with Hu2B5.1: humanized 2B5-8.0; VH SEQ ID NO 60, VL SEQ ID NO 61 (antibody, V domains shown) VH: EVQLVQSGAEVKKPGASVKVSCKASGYTFTKYWLGWVRQAPGQGLEWIGDIYPGYDYTHYNEKFKDRATLTVDTSTSTAYMELRSLRSDDTAVYYCARSDGSSTYWGQGTLVTVSS VL: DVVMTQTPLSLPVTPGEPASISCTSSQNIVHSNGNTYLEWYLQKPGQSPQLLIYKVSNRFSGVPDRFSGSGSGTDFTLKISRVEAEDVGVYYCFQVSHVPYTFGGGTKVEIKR ?
A. 63

Q. Similarly, Hu2B5.2: humanized 2B5-8.0; VH SEQ ID NO 62, VL SEQ ID NO 63 (antibody, V domains shown) VH: EVQLVQSGAEVKKPGASVKVSCKASGYTFTKYWLGWVRQAPGQGLEWIGDIYPGYDYTHYNEKFKDRATLTVDTSTSTAYMELSSLRSDDTAVYYCARSDGSSTYWGQGTLVTVSS VL: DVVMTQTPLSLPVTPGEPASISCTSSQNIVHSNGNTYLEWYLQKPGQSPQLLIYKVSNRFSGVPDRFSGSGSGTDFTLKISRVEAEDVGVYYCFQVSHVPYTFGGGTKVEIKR ?
A. 55

Q. Similarly, Hu2B5.6: humanized 2B5-8.0; VH SEQ ID NO 70, VL SEQ ID NO 71 (antibody, V domains shown) VH: EVQLVQSGAEVKKPGASVKVSCKASGYTFTKYWLGWVRQAPGQGLEWMGDIYPGYDYTHYNEKFKDRVTLTTDTSTSTAYMELSSLRSDDTAVYYCARSDGSSTYWGQGTLVTVSS VL: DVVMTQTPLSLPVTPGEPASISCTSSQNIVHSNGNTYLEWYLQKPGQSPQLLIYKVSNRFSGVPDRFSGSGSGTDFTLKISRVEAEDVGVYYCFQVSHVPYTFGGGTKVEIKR ?
A. 89
